# Tested on: 857933-349-R-J2-PDC complex spheroids, viability;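 further: spheroids exposed to compounds for one week before readout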
# assay comment: Anticancer human tumor 857933-349-R-J2-PDC patient-derived colon adenocarcinoma cell line growth inhibition [GQUAD]
# setup conditions: curve of first compound; second compound 0.316 µM
IC50 strictly under 40 nM means Met; at 40 nM or over means Not met.

Use the examples below as a reference point.
CC(=O)O[C@H]1C(=O)[C@@]2(C)[C@H]([C@H](OC(=O)c3ccccc3)[C@]3(O)C[C@H](OC(=O)[C@H](O)[C@@H](NC(=O)c4ccccc4)c4ccccc4)C(C)=C1C3(C)C)[C@]1(OC(C)=O)CO[C@@H]1C[C@@H]2O + Cc1[nH]c2ccc(F)cc2c1-c1nc2c3cccnc3c3ncccc3c2[nH]1 = Not met
CCc1c2c(nc3ccc(O)cc13)-c1cc3c(c(=O)n1C2)COC(=O)[C@]3(O)CC + Cc1[nH]c2ccc(F)cc2c1-c1nc2c3cccnc3c3ncccc3c2[nH]1 = Met
C=CCn1c(=O)c2cnc(Nc3ccc(N4CCN(C)CC4)cc3)nc2n1-c1cccc(C(C)(C)O)n1 + Cc1cnc(CNC(=O)c2c(=O)c3ccc(N4CCCN(C)CC4)nc3n3c2sc2ccccc23)cn1 = Met
COc1cccc2c1C(=O)c1c(O)c3c(c(O)c1C2=O)CC(O)(C(=O)CO)CC3OC1CC(N)C(O)C(C)O1 (stereo not given) + Cc1[nH]c2ccc(F)cc2c1-c1nc2c3cccnc3c3ncccc3c2[nH]1 = Not met
Cc1[nH]c2ccccc2c1CCNCc1ccc(/C=C/C(=O)NO)cc1 + CN(C)c1ccc(Nc2c3ccc(NC(=O)CCN4CCCC4)cc3nc3cc(NC(=O)CCN4CCCC4)ccc23)cc1 = Not met

Task item: Lab note: confirm whether the reported IC50 for this compound is below 40 nM, equality not counting. compound: CC[C@@]1(O)C(=O)OCc2c1cc1n(c2=O)Cc2cc3c(CN(C)C)c(O)ccc3nc2-1 + Cc1cnc(CNC(=O)c2c(=O)c3ccc(N4CCCN(C)CC4)nc3n3c2sc2ccccc23)cn1
Reply: Met

Task item: Thanks! And CC1COCCN1c1cc(C2(S(C)(=N)=O)CC2)nc(-c2ccnc3[nH]ccc23)n1 (stereo not given) + CN(C)c1ccc(Nc2c3ccc(NC(=O)CCN4CCCC4)cc3nc3cc(NC(=O)CCN4CCCC4)ccc23)cc1 ?
Reply: Not met

Task item: Thanks! And CC[C@@]1(O)C(=O)OCc2c1cc1n(c2=O)Cc2cc3c(CN(C)C)c(O)ccc3nc2-1 + CN(C)c1ccc(Nc2c3ccc(NC(=O)CCN4CCCC4)cc3nc3cc(NC(=O)CCN4CCCC4)ccc23)cc1 ?
Reply: Not met

Task item: Thanks! And O=C(NO)c1cnc(N2CCN(S(=O)(=O)c3ccc4ccccc4c3)CC2)nc1 + Cc1[nH]c2ccc(F)cc2c1-c1nc2c3cccnc3c3ncccc3c2[nH]1 ?
Reply: Not met

Task item: Thanks! And C#Cc1c(F)ccc2cc(O)cc(-c3ncc4c(N5CC6CCC(C5)N6)nc(OCC56CCCN5CC(F)C6)nc4c3F)c12 (stereo not given) + Cc1[nH]c2ccc(F)cc2c1-c1nc2c3cccnc3c3ncccc3c2[nH]1 ?
Reply: Not met

Cited source for all entries: PubChem BioAssay AID2060491
